# test-system: T1, DLL3 target antigen coated on Octet SA tips (binning experiment) (Homo sapiens (Human), UniProt Q9NYJ7 27-492, Probably biotinylated for capture on streptavidin (SA) tips. The site is not stated.)
# T1 sequence: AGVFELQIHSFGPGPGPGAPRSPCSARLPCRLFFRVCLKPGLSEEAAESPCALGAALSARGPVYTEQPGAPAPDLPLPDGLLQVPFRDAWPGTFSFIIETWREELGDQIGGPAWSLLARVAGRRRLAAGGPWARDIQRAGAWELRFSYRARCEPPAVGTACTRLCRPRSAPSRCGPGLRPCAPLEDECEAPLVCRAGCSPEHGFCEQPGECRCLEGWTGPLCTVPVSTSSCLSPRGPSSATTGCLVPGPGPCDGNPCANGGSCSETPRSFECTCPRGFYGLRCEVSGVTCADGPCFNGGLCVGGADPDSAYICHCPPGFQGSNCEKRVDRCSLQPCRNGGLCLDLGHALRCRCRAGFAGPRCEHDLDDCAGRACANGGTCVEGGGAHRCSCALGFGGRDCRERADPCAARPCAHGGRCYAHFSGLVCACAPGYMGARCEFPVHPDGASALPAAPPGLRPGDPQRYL
# assay-protocol: Octet binning on DLL3-coated SA tips; competitor: 2HCE117
Hi, to clarify the labels: Fulfilled covers binning response (unit not given) from 1000 upward, Not fulfilled covers anything below 1000.

Consider the worked cases shown below.
binder: anti-human DLL3 BiTE (bispecific antibody, also called DLL3 BiTEs) QVQLQESGPGLVKPSETLSLTCTVSGGSISSYYWSWIRQPPGKGLEWIGYVYYSGTTNYNPSLKSRVTISVDTSKNQFSLKLSSVTAADTAVYYCASIAVTGFYFDYWGQGTLVTVSSGGGGSGGGGSGGGGSEIVLTQSPGTLSLSPGERVTLSCRASQRVNNNYLAWYQQRPGQAPRLLIYGASSRATGIPDRFSGSGSGTDFTLTISRLEPEDFAVYYCQQYDRSPLTFGGGTKLEIK
class-name: Fulfilled

binder: 3HCE87 anti-DLL3 VHH (VHH, In the binning assay it was used as a periplasmic extract) VHH: QVQLQESGGGLVQAGGSLRLSCAASGFIFDDYIIGWFRQAPGKEREFVAAISWSGSATAYADSVKGRFTISRDNAKNTLYLQMNTLKPEDTAVYYCAASSRGPYNSGSSYDYWGQGTQVTVSS
class-name: Fulfilled

Ask: Please indicate if the recorded binning response (unit not given) for 3HCE56 anti-DLL3 VHH (VHH, In the binning assay it was used as a periplasmic extract) VHH: QVQLQESGGGLVQAGGSLRLSCAASGRTFSVDAMGWLRQAPGKEREFVVVIDWTGGSTAYADSVKGRFTISRDNARNTVYLQMNNLKPEDTGVYYCAARERSRTAYDYWGQGTQVTVSS meets or exceeds 1000.
Reply: Fulfilled

Ask: Record 2HCE27 anti-DLL3 VHH (VHH, In the binning assay it was used as a periplasmic extract; also called anti-DLL3 (2HCE27)) VHH: QVQLQESGGGLVQAGGSLRLSCAASGRTFRSYAMGWFRQAPGKEREFIAVIIMSDGSTSYADSVKGRFTISRDNAKNTLYLQMNSLKPEDTAVYYCAARRDYFTGVYDYWGQGTQVTVSS ; criterion: binning response (unit not given) no lower than 1000. Met?
Reply: Fulfilled

Ask: Quick check: does 2HCE117 anti-DLL3 VHH (VHH, In the binning assay it was used as a periplasmic extract) VHH: QVQLQESGGGLVQPGGSLRLSCAASGFTFSSYAMSWVRQAPGKGLEWVSDINSGGGSTYYADSVKGRFTISRDNAKNTLYLQMDSLKPEDTAVYYCATPFEIGSWGQGTQVTVSS have binning response (unit not given) greater than or equal to 1000?
Reply: Not fulfilled

Ask: Can 3HCE4 anti-DLL3 VHH (VHH, In the binning assay it was used as a periplasmic extract) VHH: QVQLQESGGGLVQAGASLKLSCAVSGRAGSSYDMGWLRQAPGKEREFVAIITWSGNTAYKDSVKGRFIISRDNAKNTVYLEMNSLAPEDTAVYYCAAALSEKKYEYWGQGTQVTVSS be said to have binning response (unit not given) at or above 1000?
Reply: Fulfilled
